The values you see were collected from the RNAGym collection of RNA variant scans (doi:10.7554/elife.80360).

B1: HDV Ribozyme (parent)
chain: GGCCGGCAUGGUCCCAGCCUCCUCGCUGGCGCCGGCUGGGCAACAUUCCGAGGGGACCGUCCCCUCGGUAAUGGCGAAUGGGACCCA

- Variants of: B1
- Protocol details: self-cleavage, relative activity (ratio to wild type); higher = more cleavage; co-transcriptional
// values below are reported self-cleavage
Recorded metric: self-cleavage

- C13G U65G: 0.115
- A51C C57U: 0.969
- C22G U46C: 0.116
- G5C G38C: 0.108
- U37G G80U: 0.203
- G1C A45U: 0
- G55A G81C: 0.312
- A56C U79G: 0.997
- U37G A83U: 0.156
- G6U C62U: 1
- U23A U65C: 1.09
